Tested on: CASKI
method notes: Primary qHTS to identify gynecologic anti-cancer compounds using libraries of approved drugs and bioactive compounds (AID 1345084); further: nearly all actives have a fitted effect of over 55% in size
experimental parameters: Gynecologic cancer cell panel viability, ATPlite luminescence, 48 h; series mostly up to 57.5 µM
Results filed as inconclusive are left out. Calls of active or inactive are those of the source. The call rests on the fitted dose curve; in most records, active means well fitted cell-killing curve with a large enough effect; inconclusive means small, poorly fitted or top-dose-only effect, or effect the other way; inactive means flat fitted curve, though single readings scatter.
Your reply should match one of these outcome classes. active, inactive

Please review the following examples before continuing.
structure notation: COc1cccc2c1C(=O)c1c(O)c3c(c(O)c1C2=O)C[C@@](O)(C(=O)CO)C[C@@H]3O[C@H]1C[C@H](N)[C@H](O)[C@H](C)O1
cat: active
//
structure notation: OCc1ccccc1O
cat: inactive
//
structure notation: CC(C)(C(=O)c1cccnc1)c1cccnc1
cat: inactive
//
structure notation: C=CCc1ccc(O)c(OC)c1
cat: inactive
//
structure notation: CCCOC(C(=O)OC1CCN(C)CC1)(c1ccccc1)c1ccccc1
cat: inactive

Kindly provide the recorded test outcome for the following compound: NC[C@H]1O[C@H](O[C@H]2[C@H](O)[C@@H](O[C@H]3O[C@H](CO)[C@@H](O)[C@H](N)[C@H]3O)[C@H](N)C[C@@H]2N)[C@H](N)[C@@H](O)[C@@H]1O inactive

Kindly provide the recorded test outcome for the following compound: O=C(Nc1ccc(Oc2ccc(Cl)cc2)c(Cl)c1)c1cc(I)cc(I)c1O inactive

* * *

method notes: Cell Viability - LYMP2-020 (AID 986);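 further: cells exposed to compound for 24 h at 37 °C; nearly all actives have a fitted effect of over 55% in size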
experimental parameters: series mostly up to 92.2 µM
Inconclusive results are not listed. Calls of active or inactive are those of the source. Calls follow the shape of the dose curve; as a rule, active = well fitted cell-killing curve with a large enough effect; inconclusive = small, poorly fitted or top-dose-only effect; inactive = flat fitted curve, though single readings scatter.
Your reply should match one of these outcome classes. 1 (active), -1 (inactive)

Please review the following examples before continuing.
structure notation: Nc1ccc(C(=O)O)cc1
cat: -1
//
structure notation: O=C(O)CCCCC(=O)O
cat: -1
//
structure notation: Oc1c(Cl)cc(Cl)cc1Sc1cc(Cl)cc(Cl)c1O
cat: 1
//
structure notation: C=CCc1ccc(O)c(OC)c1
cat: -1
//
structure notation: O=c1ccc2ccccc2o1
cat: -1
//
structure notation: COC1=CC(=O)C[C@@H](C)[C@]12Oc1c(Cl)c(OC)cc(OC)c1C2=O
cat: -1

Next up:
Kindly provide the recorded test outcome for the following compound: O=C1OC(c2ccc(O)cc2)(c2ccc(O)cc2)c2ccccc21 -1

* * *

Test system: OV90
method notes: Primary qHTS to identify gynecologic anti-cancer compounds using libraries of approved drugs and bioactive compounds (AID 1345084); further: nearly all actives have a fitted effect of over 55% in size
experimental parameters: Gynecologic cancer cell panel viability, ATPlite luminescence, 48 h; series mostly up to 57.5 µM
Results filed as inconclusive are left out. Calls of active or inactive are those of the source. Calls come from the whole dose curve; as a rule, active = well fitted cell-killing curve with a large enough effect; inconclusive = small, poorly fitted or top-dose-only effect, or effect the other way; inactive = flat fitted curve, though single readings scatter.
Your reply should match one of these outcome classes. 1 for active, -1 for inactive

compound: CC(=O)Nc1c(I)cc(I)c(C(=O)O)c1I
cat: -1

Kindly provide the recorded test outcome for the following compound: CCCCS(=O)(=O)N[C@@H](Cc1ccc(OCCCCC2CCNCC2)cc1)C(=O)O -1

* * *

method notes: Cell Viability - LYMP2-013 (AID 970);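 further: cells exposed to compound for 24 h at 37 °C; nearly all actives have a fitted effect of over 55% in size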; further: potency means the concentration at half of the fitted maximal effect
experimental parameters: LYMP2-013 lymphoblastoid cells viability; series mostly up to 92.2 µM
Records with an inconclusive call do not appear. The source made the active and inactive calls. Calls follow the shape of the dose curve; as a rule, active = well fitted cell-killing curve with a large enough effect; inconclusive = small, poorly fitted or top-dose-only effect; inactive = flat fitted curve, though single readings scatter.
property: Potency

Reference set, count: 4
structure notation: CN(C)/N=N/c1nc[nH]c1C(N)=O
property: Potency
test result: inactive
--
structure notation: COC1=CC(=O)C[C@@H](C)[C@]12Oc1c(Cl)c(OC)cc(OC)c1C2=O
property: Potency
test result: inactive
--
structure notation: O=c1ccc2ccccc2o1
property: Potency
test result: inactive
--
structure notation: Nc1ccc(C(=O)O)cc1
property: Potency
test result: inactive

# evaluate next
# return recorded Potency for entry C=C(CC)C(=O)c1ccc(OCC(=O)O)c(Cl)c1Cl 50.1 µM (active)
